Every entry's value here was drawn from paper PMC9666304.

# Substrate: CCCCCCCCCCC1=C(C)C(=O)C(OC)=C(OC)C1=O
# Protocol: purified protein
# Type: biochemical, Thiocapsa roseopersicina
# Assay conditions: 200 µM sulfide, 50 mM Tris-HCl pH 8.0, 25 °C, anaerobic
Quick rule: kcat/Km of at least 300000 M⁻¹ s⁻¹ means Criterion met, below that means Criterion not met.

Reference set (3 entries):
>  <Protein>
SqrF CTD (Thiocapsa roseopersicina) (protein, C-terminal alpha-helix deletion, stop codons after Thr356; N-terminal StrepII tag, expressed in T. roseopersicina FOQRON) MHRITIVGSGFAGLTAVQSIRRTAPDAEITLVSNKAEFIYYPGLIWVPCGIRSGEDLRIDLRPFFKRMRVRHLAGEATGLSPDGRTLETTAGPVENDGLVIGSGGRFIKKLPGIEHAITPCEGIAAAEAIRDRVKAMDGGSIAMGFAGNPNEPSSMRGGPIFEFIFGMDSQLRKEGRRDRFRLHFFTPAERPGNRLGPKAVDGILAEMKRRGIETHLGHKLKSFSESKVTTEAGEFDADLILFMPGMTGNTWFDNTDLPRSPGGLLQADAHCRVPGYERVYVAGDSGSFPGPDWMPKQAHMADLQARAAVKNLLAELQGRAPSETFKVELVCIVDANDTGMLVARTEKNNWVLPST

>  <Class label>
Criterion not met

$$$$
>  <Protein>
TrSqrF; SqrF WT (Thiocapsa roseopersicina; V331A) (protein) MHRITIVGSGFAGLTAVQSIRRTAPDAEITLVSNKAEFIYYPGLIWVPCGIRSGEDLRIDLRPFFKRMRVRHLAGEATGLSPDGRTLETTAGPVENDGLVIGSGGRFIKKLPGIEHAITPCEGIAAAEAIRDRVKAMDGGSIAMGFAGNPNEPSSMRGGPIFEFIFGMDSQLRKEGRRDRFRLHFFTPAERPGNRLGPKAVDGILAEMKRRGIETHLGHKLKSFSESKVTTEAGEFDADLILFMPGMTGNTWFDNTDLPRSPGGLLQADAHCRVPGYERVYVAGDSGSFPGPDWMPKQAHMADLQARAAVKNLLAELQGRAPSETFKVELACIVDANDTGMLVARTEKNNWVLPSTRFFHWMKLGFEWWYLRPYR

>  <Class label>
Criterion not met

$$$$
>  <Protein>
TrSqrF; SqrF WT (Thiocapsa roseopersicina; F366Y) (protein) MHRITIVGSGFAGLTAVQSIRRTAPDAEITLVSNKAEFIYYPGLIWVPCGIRSGEDLRIDLRPFFKRMRVRHLAGEATGLSPDGRTLETTAGPVENDGLVIGSGGRFIKKLPGIEHAITPCEGIAAAEAIRDRVKAMDGGSIAMGFAGNPNEPSSMRGGPIFEFIFGMDSQLRKEGRRDRFRLHFFTPAERPGNRLGPKAVDGILAEMKRRGIETHLGHKLKSFSESKVTTEAGEFDADLILFMPGMTGNTWFDNTDLPRSPGGLLQADAHCRVPGYERVYVAGDSGSFPGPDWMPKQAHMADLQARAAVKNLLAELQGRAPSETFKVELVCIVDANDTGMLVARTEKNNWVLPSTRFFHWMKLGYEWWYLRPYR

>  <Class label>
Criterion met

$$$$

Lookup: Does kcat/Km meet or surpass 300000 M⁻¹ s⁻¹ for TrSqrF; SqrF WT (Thiocapsa roseopersicina; I333F) (protein) MHRITIVGSGFAGLTAVQSIRRTAPDAEITLVSNKAEFIYYPGLIWVPCGIRSGEDLRIDLRPFFKRMRVRHLAGEATGLSPDGRTLETTAGPVENDGLVIGSGGRFIKKLPGIEHAITPCEGIAAAEAIRDRVKAMDGGSIAMGFAGNPNEPSSMRGGPIFEFIFGMDSQLRKEGRRDRFRLHFFTPAERPGNRLGPKAVDGILAEMKRRGIETHLGHKLKSFSESKVTTEAGEFDADLILFMPGMTGNTWFDNTDLPRSPGGLLQADAHCRVPGYERVYVAGDSGSFPGPDWMPKQAHMADLQARAAVKNLLAELQGRAPSETFKVELVCFVDANDTGMLVARTEKNNWVLPSTRFFHWMKLGFEWWYLRPYR ?
Found: Criterion not met

Lookup: Does kcat/Km meet or surpass 300000 M⁻¹ s⁻¹ for TrSqrF; SqrF WT (Thiocapsa roseopersicina) (protein) MHRITIVGSGFAGLTAVQSIRRTAPDAEITLVSNKAEFIYYPGLIWVPCGIRSGEDLRIDLRPFFKRMRVRHLAGEATGLSPDGRTLETTAGPVENDGLVIGSGGRFIKKLPGIEHAITPCEGIAAAEAIRDRVKAMDGGSIAMGFAGNPNEPSSMRGGPIFEFIFGMDSQLRKEGRRDRFRLHFFTPAERPGNRLGPKAVDGILAEMKRRGIETHLGHKLKSFSESKVTTEAGEFDADLILFMPGMTGNTWFDNTDLPRSPGGLLQADAHCRVPGYERVYVAGDSGSFPGPDWMPKQAHMADLQARAAVKNLLAELQGRAPSETFKVELVCIVDANDTGMLVARTEKNNWVLPSTRFFHWMKLGFEWWYLRPYR ?
Found: Criterion met

Lookup: Does kcat/Km meet or surpass 300000 M⁻¹ s⁻¹ for TrSqrF; SqrF WT (Thiocapsa roseopersicina; F366A) (protein) MHRITIVGSGFAGLTAVQSIRRTAPDAEITLVSNKAEFIYYPGLIWVPCGIRSGEDLRIDLRPFFKRMRVRHLAGEATGLSPDGRTLETTAGPVENDGLVIGSGGRFIKKLPGIEHAITPCEGIAAAEAIRDRVKAMDGGSIAMGFAGNPNEPSSMRGGPIFEFIFGMDSQLRKEGRRDRFRLHFFTPAERPGNRLGPKAVDGILAEMKRRGIETHLGHKLKSFSESKVTTEAGEFDADLILFMPGMTGNTWFDNTDLPRSPGGLLQADAHCRVPGYERVYVAGDSGSFPGPDWMPKQAHMADLQARAAVKNLLAELQGRAPSETFKVELVCIVDANDTGMLVARTEKNNWVLPSTRFFHWMKLGAEWWYLRPYR ?
Found: Criterion not met
